meta.source: paper PMC10397247

Known interaction score of a selection of binders
Target: T1, O4-bH
T1 chain: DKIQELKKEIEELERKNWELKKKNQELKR
Experiment: two-hybrid library CCNG1;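 also: natural log of median RNA to DNA barcode read ratio; higher means stronger binding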
Lab note: jot down the number only; don't add units.

DEIQELEKENEELERKIWELKKENQELER [O15-bH]	-1.19
DEIQELEKKIEELKRKNWELKKKNQELKR [O12-bH]	1.12
DKNQELKKKIEELKRKNWELKKEIQELER [O13-bH]	-0.471
DENQELEKKNEELKRKIWELKKKIQELKR [O2-bH]	-0.611
DKNQELKKENEELEREIWELEKEIQELER [O1-bH]	-1.15
DKIQELKKEIEELERENWELEKENQELER [O11-bH]	1.29

Continue with the next binder.
[ask] Quote interaction score reported for DKNQELKKENEELERKIWELKKKIQELKR [O10-bH] please.
[reply] 0.524
